- Test system: Escherichia coli TOP10;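 further: peptides expressed intracellularly from a pBAD plasmid library in pooled LB shake-flask culture, induced with 0.3% L-arabinose, DNA abundance read by NGS, three biological replicates, DESeq2 with apeglm shrinkage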
- Measurement protocol: shrunken log2 fold change of peptide-encoding DNA abundance (4.5 h post-induction vs induction); higher = less antimicrobial activity (less host growth inhibition)
- Experimental setup: time post-induction: 4.5 h; library: site-saturation at positions 5, 18, 19, 20
Parameter shrunken log2 fold change: see the listing below.
Measured attribute: shrunken log2 fold change

>>> print(df.to_string())
            sequence_string  measured_number
 0  RRIRCRPPRLPRPRPRPVWCPRP           -0.269
 1  RRIRQRPPRLPRPRPRPTQLPRP            0.375
 2  RRIRNRPPRLPRPRPRPDHHPRP            0.109
 3  RRIRMRPPRLPRPRPRPPMFPRP            0.225
 4  RRIRERPPRLPRPRPRPDWMPRP           0.0111
 5  RRIRNRPPRLPRPRPRPCYKPRP           -0.173
 6  RRIRLRPPRLPRPRPRPNALPRP          -0.0646
 7  RRIRVRPPRLPRPRPRPENMPRP          -0.0886
 8  RRIRTRPPRLPRPRPRPSQWPRP           -0.168
 9  RRIRQRPPRLPRPRPRPNYPPRP           -0.239
10  RRIRDRPPRLPRPRPRPLAQPRP             0.83
11  RRIRPRPPRLPRPRPRPDPDPRP          -0.0832
12  RRIRHRPPRLPRPRPRPHFWPRP          -0.0607
13  RRIRHRPPRLPRPRPRPCYYPRP           -0.258
14  RRIRYRPPRLPRPRPRPFRHPRP            -0.16
15  RRIRKRPPRLPRPRPRPQKNPRP            0.319
16  RRIRGRPPRLPRPRPRPVQTPRP            0.626
17  RRIRCRPPRLPRPRPRPDSIPRP          -0.0365
18  RRIRPRPPRLPRPRPRPHPYPRP           -0.576
19  RRIRKRPPRLPRPRPRPAIFPRP            0.233
20  RRIRARPPRLPRPRPRPNSSPRP            0.184
21  RRIRLRPPRLPRPRPRPMECPRP           -0.489
22  RRIRYRPPRLPRPRPRPCCYPRP           -0.363
23  RRIRLRPPRLPRPRPRPILEPRP           -0.186
24  RRIRRRPPRLPRPRPRPGAHPRP             0.45
25  RRIRKRPPRLPRPRPRPLKAPRP           0.0198
26  RRIRRRPPRLPRPRPRPKCWPRP            0.307
27  RRIRSRPPRLPRPRPRPHLDPRP           -0.156
28  RRIRHRPPRLPRPRPRPLAMPRP            0.287
29  RRIRERPPRLPRPRPRPYCAPRP           -0.533
30  RRIRIRPPRLPRPRPRPIYIPRP           -0.159
31  RRIRLRPPRLPRPRPRPIFRPRP          0.00696
32  RRIRFRPPRLPRPRPRPMFMPRP            -0.14
33  RRIRCRPPRLPRPRPRPYCVPRP           -0.517
34  RRIRPRPPRLPRPRPRPCAVPRP           -0.418
35  RRIRQRPPRLPRPRPRPNTEPRP          -0.0119
